Target: T1, PUF4 RNA-binding domain (Saccharomyces cerevisiae, UniProt P25339 537-888)
T1 sequence: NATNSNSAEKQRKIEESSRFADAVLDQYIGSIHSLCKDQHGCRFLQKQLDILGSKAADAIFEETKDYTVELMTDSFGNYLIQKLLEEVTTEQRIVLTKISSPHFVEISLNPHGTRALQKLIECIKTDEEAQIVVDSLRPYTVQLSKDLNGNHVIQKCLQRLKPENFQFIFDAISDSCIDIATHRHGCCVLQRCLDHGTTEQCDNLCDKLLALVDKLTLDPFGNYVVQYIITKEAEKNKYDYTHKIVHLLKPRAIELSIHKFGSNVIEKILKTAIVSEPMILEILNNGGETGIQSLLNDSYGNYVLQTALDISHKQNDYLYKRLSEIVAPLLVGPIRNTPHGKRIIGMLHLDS
Assay: Mg; RNA-MaP; 20 mM Na-HEPES pH 7.4, 30 mM KOAc, 0.75 mM MgCl2, 0.1% Tween-20, 5% glycerol, 0.1 mg/mL BSA, 2 mM DTT; 25 C; 0.0125-409.6 nM protein
Details: tags: N-His6-TEV cleaved; C-SNAP kept, Cy3B-labelled; label: tethered on chip by stalled RNA polymerase
pKd: −log10 of the molar value.
Reported pKd is given for each of the following binders.
MEASURED ENDPOINT: pKd

• ACAAACCUUGCCUCUUAUAUAUAACAAAC (ssRNA) [Ie_S3_P3E.2_K3.1_C3.2_H3.1_[+2CCTCT]_A3.1_F3.1_T3.2] = 6.00
• UCUCUUUAUAUAAUAUCUCUU (ssRNA) [Ib_S1_P4E.1_K4.1_C4.1_H4.1_[G2A]_A4.1_[T7A]_F4.1_T4.1] = 7.21
• Ib_S2_P5E.1_K5.1_C5.1_H5.1_A5.1_[T5G]_[A7C]_F5.1_T5.1 (ssRNA) RNA: UUUGAUUAAUAUGAUAUCGUUCUUUCUUGUAGUCUUAUUCUUUCUCGAUAUCAUAUUAAUCUUU = 8.02
• Ic_S2_P4E.1_K4.1_C4.1_H4.1_A4.1_[T5C]_[A6T]_[T7A]_F4.1_[T8A]_[A9C]_T4.1 (ssRNA) RNA: UUUGAUUAAUAUGAUAUCGUUCUUUCUUGUACUAACUUCUUUCUCGAUAUCAUAUUAAUCUUU = 6.28
